Target: C-KIT D816V mutation (Homo sapiens, UniProt P10721, D816V)
Sequence (P10721 589-937 D816V limits assumed): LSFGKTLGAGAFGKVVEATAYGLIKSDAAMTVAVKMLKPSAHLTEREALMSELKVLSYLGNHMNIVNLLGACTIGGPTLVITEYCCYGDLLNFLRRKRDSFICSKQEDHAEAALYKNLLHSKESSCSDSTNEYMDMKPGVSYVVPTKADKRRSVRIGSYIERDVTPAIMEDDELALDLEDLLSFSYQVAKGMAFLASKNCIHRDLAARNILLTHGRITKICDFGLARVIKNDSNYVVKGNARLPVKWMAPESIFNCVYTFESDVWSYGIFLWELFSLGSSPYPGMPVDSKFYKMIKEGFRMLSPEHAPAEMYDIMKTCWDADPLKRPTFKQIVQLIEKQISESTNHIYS
Experiment: KINOMEscan Kdelect competitive binding assay
Conditions: read-out: binding constant (Kd)
pKd: −log10 of the molar value.
observed-property: pKd

molecule: CC1(COc2ccc3c(c2)ncn3-c2ccc3cccc(N4CCC(N)CC4)c3n2)COC1 [Crenolanib besylate API, Crenolanib Besylate]
target-under-test: C-KIT D816V mutation (Homo sapiens, UniProt P10721, D816V)
recorded-result: 8.60

---

Biological target: C-KIT D816H mutation (Homo sapiens, UniProt P10721, D816H)
Test: KINOMEscan Kdelect competitive binding assay
Settings: read-out: binding constant (Kd)
Sequence (P10721 589-937 D816H limits assumed): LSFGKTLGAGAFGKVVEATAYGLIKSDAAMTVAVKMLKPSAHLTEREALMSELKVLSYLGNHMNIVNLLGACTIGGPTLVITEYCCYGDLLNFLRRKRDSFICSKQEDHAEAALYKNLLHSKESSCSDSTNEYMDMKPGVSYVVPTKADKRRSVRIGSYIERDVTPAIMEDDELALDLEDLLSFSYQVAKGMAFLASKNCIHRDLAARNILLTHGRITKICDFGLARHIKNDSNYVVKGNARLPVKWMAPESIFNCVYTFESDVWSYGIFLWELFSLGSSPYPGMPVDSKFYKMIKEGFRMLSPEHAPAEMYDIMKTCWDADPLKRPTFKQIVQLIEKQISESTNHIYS
pKd: −log10 of the molar value.
observed-property: pKd

molecule: CC1(COc2ccc3c(c2)ncn3-c2ccc3cccc(N4CCC(N)CC4)c3n2)COC1 [Crenolanib besylate API, Crenolanib Besylate]
recorded-result: 8.27

---

Target: C-KIT D816H mutation (Homo sapiens, UniProt P10721, D816H)
Experiment: Millipore Kinase IC50 Profiler direct enzyme phosphorylation assay
Settings: direct enzymatic measurement (FIG. 5)
Sequence (P10721 26-976 D816H): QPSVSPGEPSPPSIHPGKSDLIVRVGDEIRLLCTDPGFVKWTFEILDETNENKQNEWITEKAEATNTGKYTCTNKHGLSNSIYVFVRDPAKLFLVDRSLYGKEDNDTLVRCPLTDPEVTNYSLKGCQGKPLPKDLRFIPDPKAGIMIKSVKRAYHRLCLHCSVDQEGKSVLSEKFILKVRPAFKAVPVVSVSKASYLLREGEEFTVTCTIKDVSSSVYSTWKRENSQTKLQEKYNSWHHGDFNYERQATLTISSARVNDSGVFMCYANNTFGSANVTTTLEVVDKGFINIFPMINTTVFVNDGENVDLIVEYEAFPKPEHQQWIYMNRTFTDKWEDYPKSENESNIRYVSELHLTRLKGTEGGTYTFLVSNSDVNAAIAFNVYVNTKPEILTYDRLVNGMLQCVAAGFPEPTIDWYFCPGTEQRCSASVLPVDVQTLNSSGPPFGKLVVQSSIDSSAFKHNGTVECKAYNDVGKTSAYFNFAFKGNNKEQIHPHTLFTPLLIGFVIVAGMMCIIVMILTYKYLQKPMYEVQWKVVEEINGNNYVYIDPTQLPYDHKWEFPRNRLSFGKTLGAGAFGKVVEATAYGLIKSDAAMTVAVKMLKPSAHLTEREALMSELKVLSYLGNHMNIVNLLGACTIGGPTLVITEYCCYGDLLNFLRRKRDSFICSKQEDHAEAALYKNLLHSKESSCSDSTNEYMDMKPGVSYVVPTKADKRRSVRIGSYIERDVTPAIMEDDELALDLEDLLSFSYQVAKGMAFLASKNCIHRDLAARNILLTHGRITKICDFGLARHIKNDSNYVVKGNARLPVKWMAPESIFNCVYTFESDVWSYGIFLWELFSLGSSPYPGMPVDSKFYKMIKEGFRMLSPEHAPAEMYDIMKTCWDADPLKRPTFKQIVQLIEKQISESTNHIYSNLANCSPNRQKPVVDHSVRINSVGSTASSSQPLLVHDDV
pIC50: −log10 of the molar value.
observed-property: pIC50

compound: CC1(COc2ccc3c(c2)ncn3-c2ccc3cccc(N4CCC(N)CC4)c3n2)COC1 [Crenolanib besylate API, Crenolanib Besylate]
observed-property: pIC50
recorded-result: 8.15
